Each recorded value in this set is attributed to paper PMC10819771.

# Kd values compiled below
Tested Target: ds26
Assay Explanation: Native electrospray mass spectrometry, duplex control ds26
Type: binding
Protocol Conditions: second binding event; 10 µM DNA, 20 µM ligand; read-out: Kd2 ds26
Write the number in µM without appending the unit.

1. CN1CCN(CCCCNCc2ccc(-c3cc(-c4ccc(CNCCCCN5CCN(C)CC5)cc4)c4cc(-c5ccccc5)ccc4n3)cc2)CC1 [Compound 13d]: 460

CN1CCN(CCCCNCc2ccc(-c3nc(-c4ccc(CNCCCCN5CCN(C)CC5)cc4)c4cc(-c5ccccc5)ccc4n3)cc2)CC1 [Compound 12e] yielded Kd of 280

For this compound ( CN(C)CCCNCc1ccc(-c2nc(-c3ccc(CNCCCN(C)C)cc3)c3cc(-c4ccccc4)ccc3n2)cc1 [Compound 12b] ), measured Kd is 130

The value of Kd measured for the compound CN(C)CCCNCc1ccc(-c2cc(-c3ccc(CNCCCN(C)C)cc3)c3cc(-c4ccccc4)ccc3n2)cc1 [Compound 13a] turned out to be 95

* * *

Tested Target: ds26
Assay Explanation: Native electrospray mass spectrometry, duplex control ds26
Assay type: binding
Protocol Conditions: first binding event; 10 µM DNA, 20 µM ligand; read-out: Kd1 ds26
Some compounds, each annotated with its measured Kd.
Numbers only; they are read as µM.

These recorded examples may help you get a feel for the data.
1) CN(C)CCCNCc1ccc(-c2nc(-c3ccc(CNCCCN(C)C)cc3)c3cc(-c4ccccc4)ccc3n2)cc1 [Compound 12b]: 17
2) CN1CCN(CCCCNCc2ccc(-c3cc(-c4ccc(CNCCCCN5CCN(C)CC5)cc4)c4cc(-c5ccccc5)ccc4n3)cc2)CC1 [Compound 13d]: 85
3) CN1CCN(CCCCNCc2ccc(-c3nc(-c4ccc(CNCCCCN5CCN(C)CC5)cc4)c4cc(-c5ccccc5)ccc4n3)cc2)CC1 [Compound 12e]: 30

Kd of CN(C)CCCNCc1ccc(-c2cc(-c3ccc(CNCCCN(C)C)cc3)c3cc(-c4ccccc4)ccc3n2)cc1 [Compound 13a] , assay on ds26, is 14

* * *

System: human telomeric sequence F21T
Assay Explanation: FRET-melting, F21T
Assay type: binding
Protocol Conditions: ligand 2 μM, DNA 0.2 μM, 10 mM KCl, 90 mM LiCl, pH 7.2
Listed next: entries and their corresponding ΔT1/2 (°C) F21T.
The answer is to be given in °C; state only the numeric part.

Some molecules with recorded ΔT1/2 (°C) F21T:
1. CN1CCN(CCCCNCc2ccc(-c3cc(-c4ccc(CNCCCCN5CCN(C)CC5)cc4)c4cc(-c5ccccc5)ccc4n3)cc2)CC1 [Compound 13d]: 8.0
2. CN1CCN(CCCCNCc2ccc(-c3nc(-c4ccc(CNCCCCN5CCN(C)CC5)cc4)c4cccc(-c5ccccc5)c4n3)cc2)CC1 [Compound 12n]: 20.7

Entry CN1CCN(CCCNCc2ccc(-c3nc(-c4ccc(CNCCCN5CCN(C)CC5)cc4)c4ccc(-c5ccccc5)cc4n3)cc2)CC1 [Compound 12i] — recorded ΔT1/2 (°C) F21T = 18.6

ΔT1/2 (°C) F21T measured on CC1CN(CCCNCc2ccc(-c3cc(-c4ccc(CNCCCN5CCNC(C)C5)cc4)c4cc(-c5ccccc5)ccc4n3)cc2)CCN1 (stereo not shown) [Compound 13c] = 11.3

CN(C)CCCNCc1ccc(-c2cc(-c3ccc(CNCCCN(C)C)cc3)c3cccc(-c4ccccc4)c3n2)cc1 [Compound 13e] has a reported ΔT1/2 (°C) F21T of 15.9

// recorded ΔT1/2 (°C) F21T for CN1CCN(CCCCNCc2ccc(-c3nc(-c4ccc(CNCCCCN5CCN(C)CC5)cc4)c4ccc(-c5ccccc5)cc4n3)cc2)CC1 [Compound 12j] : 14.5

In plain terms, CN(C)CCCCNCc1ccc(-c2nc(-c3ccc(CNCCCCN(C)C)cc3)c3ccc(-c4ccccc4)cc3n2)cc1 [Compound 12g] has a documented ΔT1/2 (°C) F21T of 19.2

* * *

Test system: K562
Assay Explanation: MTS cell proliferation assay, K562
Assay type: cell-based, human
Protocol Conditions: Homo sapiens, K562, 72 h; MTS, 3-day incubation, leukemia cells; read-out: IC50 Values (μM) ± SEM K562
Metric: IC50 (µM)
Return type: number; implicit unit µM.

1) CN(C)CCCNCc1ccc(-c2nc(-c3ccc(CNCCCN(C)C)cc3)c3c(-c4ccccc4)cccc3n2)cc1 [Compound 12a]: 14
2) CN1CCN(CCCCNCc2ccc(-c3nc(-c4ccc(CNCCCCN5CCN(C)CC5)cc4)c4cccc(-c5ccccc5)c4n3)cc2)CC1 [Compound 12n]: 14
3) CN(C)CCCNCc1ccc(-c2nc(-c3ccc(CNCCCN(C)C)cc3)c3cccc(-c4ccccc4)c3n2)cc1 [Compound 12k]: 7
4) CN1CCN(CCCNCc2ccc(-c3nc(-c4ccc(CNCCCN5CCN(C)CC5)cc4)c4ccc(-c5ccccc5)cc4n3)cc2)CC1 [Compound 12i]: 23
5) CN(C)CCCNCc1ccc(-c2nc(-c3ccc(CNCCCN(C)C)cc3)c3ccc(-c4ccccc4)cc3n2)cc1 [Compound 12f]: 14

Form field IC50, entry CN1CCN(CCCCNCc2ccc(-c3cc(-c4ccc(CNCCCCN5CCN(C)CC5)cc4)c4cc(-c5ccccc5)ccc4n3)cc2)CC1 [Compound 13d] : 14

Entry under test: CN(C)CCCNCc1ccc(-c2cc(-c3ccc(CNCCCN(C)C)cc3)c3cccc(-c4ccccc4)c3n2)cc1 [Compound 13e] . Its IC50 was 7

So for CN(C)CCCCNCc1ccc(-c2nc(-c3ccc(CNCCCCN(C)C)cc3)c3ccc(-c4ccccc4)cc3n2)cc1 [Compound 12g] , the logged IC50 turned out to be 12

# compound CN1CCN(CCCCNCc2ccc(-c3nc(-c4ccc(CNCCCCN5CCN(C)CC5)cc4)c4ccc(-c5ccccc5)cc4n3)cc2)CC1 [Compound 12j] ; its IC50 = 8
